// provenance: patent US20240279318A1

Listed here are binders together with their documented SPR binding level.
Molecular target: group 3: OR1I1, OR51B6, OR6C1, ATG9A, RP1 and NR2E1 homologous peptide/HLA-A*02:01 complexes (mixed)
Assay: SPR (BIAcore T200), crude scFv captured, mixed complexes flowed over
Hi! Could you send only the number? It should be in RU, unit omitted.

42-AS170036 VL1VH1-56Y98F108S (scFv) scFv: QSALTQPRSVSGSPGQSVTISCAGTSSDVGSENYVSWYQQHPGKAPKLMIYQVNKRASGVPDRFSGSKSGNTASLTISGLQAEDEADYYCASYRSSDFNIVFGGGTKLTVLGGGGSGGGGSGGGGSEVQLVESGGGLVQPGGSLRLSCAASGFTFSSYAMSWVRQAPGKGLEWVSTINSGTYSPYYADSVKGRFTISRDNSKNTLYLQMNSLRAEDTAVYYCAKNFFDGSWFLSPPAMDYWGQGTLVTVSSHHHHHH	4.4

Continue with the binder presented below.
Value of SPR binding level reported for the binder 16-AS170036 VL1VH1-56Y108A (scFv) scFv: QSALTQPRSVSGSPGQSVTISCAGTSSDVGSENYVSWYQQHPGKAPKLMIYQVNKRASGVPDRFSGSKSGNTASLTISGLQAEDEADYYCASYRSSDHNIVFGGGTKLTVLGGGGSGGGGSGGGGSEVQLVESGGGLVQPGGSLRLSCAASGFTFSSYAMSWVRQAPGKGLEWVSTINSGTYSPYYADSVKGRFTISRDNSKNTLYLQMNSLRAEDTAVYYCAKNFFDGSWFLAPPAMDYWGQGTLVTVSSHHHHHH is 3.2
